Values were extracted from patent US20230233533A1.

SYSTEM_NAME: Prp8 intein (Cryptococcus gattii, UniProt E6R027)
Sequence (E6R027 entry or part of it): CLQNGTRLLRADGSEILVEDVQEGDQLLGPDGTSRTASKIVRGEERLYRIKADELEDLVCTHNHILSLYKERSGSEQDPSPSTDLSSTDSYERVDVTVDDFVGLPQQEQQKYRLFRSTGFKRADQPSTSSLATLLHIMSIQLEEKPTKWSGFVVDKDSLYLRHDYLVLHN
ASSAY_NAME: Split Renilla luciferase RLuc-Prp8 intein splicing assay
Assay type: biochemical
STUDY_CONDITIONS: split Renilla luciferase RLuc-Prp8 intein splicing
Description: Split luciferase Prp8 intein splicing assay—The split RLuc-Prp8 fusion protein was carried out and monitored using a Veritas luminometer, as described previously. Split luciferase RLuc-Prp8 and NnLuc-Prp8 intein splicing assays—The split RLuc-Prp8 intein splicing assay was carried out and monitored using a Veritas luminometer, as described previously. […] Microbes. Infect. […] Luciferase substrate (Furimazine, 25 ul 1:10,000 diluted) is added and luminescence is read using a luminescence reader. […]
Rule: IC50 below 20 µM gives Yes. Equal to or above 20 µM gives No.

• O=C(Nc1ccc(F)cc1F)c1ncsc1S(=O)(=O)c1ccc(Cl)cc1 [JMX0515] = No
• O=C(Nc1ccc(F)cc1)c1nnc([S+]([O-])c2ccc(Cl)cc2)s1 (stereo not shown) [JMX0585-2] = No
• O=C(Nc1ccc(C(F)(F)F)cc1)c1nnsc1S(=O)(=O)c1ccc(Cl)cc1 [JMX0576] = Yes
• O=C(Nc1ccc(F)nc1)c1ncsc1S(=O)(=O)c1ccc(Cl)cc1 [JMX0524] = Yes
• O=C(Nc1ccc(Cl)cc1)c1nnsc1S(=O)(=O)c1ccc(Cl)cc1 [JMX0571] = Yes

stdin: Dear colleague, could you confirm whether IC50 of O=C(Nc1ccc(F)cc1)c1nnsc1[S+]([O-])c1ccc(Cl)cc1 (stereo not shown) [JMX0565-1] falls below 20 µM? Thanks.
stdout: Yes

stdin: Dear colleague, could you confirm whether IC50 of O=C(Nc1ccc(F)cc1)c1nnc(Sc2ccc(Cl)cc2)s1 [JMX0584] falls below 20 µM? Thanks.
stdout: Yes

stdin: Dear colleague, could you confirm whether IC50 of O=C(Nc1ccc(F)c(F)c1)c1ncsc1S(=O)(=O)c1ccc(Cl)cc1 [JMX0520] falls below 20 µM? Thanks.
stdout: No
